Origin of the recorded values: the Biogen ADME set (Fang et al. 2023)

Heads up, the class ranges for intrinsic clearance, human liver microsomes are low: < 20 mL/min/kg; medium: ≥ 20 mL/min/kg and < 70 mL/min/kg; high: ≥ 70 mL/min/kg

Task: Class for `O=C(Nc1ccccc1)Nc1ccccc1` ?
Output: low

Task: Class for `Cc1nc(Cn2ncc3ccccc3c2=O)cs1` ?
Output: low

Task: Class for `Cc1ccc(NC(=O)c2cccc3cccnc23)cc1` ?
Output: high

Task: Class for `CONC(=O)c1ccccc1Nc1cc(Nc2cc(C)nn2C(C)C)ncc1Cl` ?
Output: medium

Task: Class for CN(CC(=O)NC1CC1)C(=O)C1C2CC3CC(C2)CC1C3 (stereo not drawn) ?
Output: medium

Task: Class for `CC(C)c1cc(C(=O)Nc2ncccc2Cl)no1` ?
Output: high

Task: Class for `CN(C)[C@@H]1CN(C(=O)c2cc3ccc(F)cc3[nH]2)C[C@H]1O` ?
Output: low

Task: Class for `CCOC(=O)c1ccc(N2CCSCC2)nc1` ?
Output: high

Task: Class for `Fc1cccc(CCNCc2cc(-c3ccccc3)cn3nnnc23)c1` ?
Output: high

Task: Class for `CC1(C)Cc2cc(CN3CCC4(CC3)NC(=O)N(Cc3ccccc3)C4=O)ccc2O1` ?
Output: medium

Task: Class for `Cc1cc(-c2nnc3ccc4ccccc4n23)n(C)n1` ?
Output: low

Task: Class for `Brc1cc2c(cc1Cn1cncn1)OCCCO2` ?
Output: low

Task: Class for `CCn1cc(C(=O)O)c(=O)c2c(N)c(F)c(NC3CCCCC3)cc21` ?
Output: low

Task: Class for `CN(Cc1nc(N)c2ccccc2n1)Cc1ccc(F)cc1F` ?
Output: medium

Task: Class for `CNC(=O)CC1CCN(c2ncccn2)CC1` ?
Output: low

Task: Class for `N#CCn1ncnc1-c1cccc(C#N)c1` ?
Output: low

Task: Class for `CCC(=O)NCC[C@@H]1CCc2ccc3c(c21)CCO3` ?
Output: medium

Task: Class for `Cc1ccc(NC(=O)CN(C)C(=O)c2ccccc2F)nc1` ?
Output: low

Task: Class for `CNC(=O)c1cn(C)nc1CC1CCN(Cc2cnc(-c3ccc(OC)cc3)nc2)CC1` ?
Output: low

Task: Class for `Cc1nc(-c2ccccc2)ccc1C(=O)N1CCCS1(=O)=O` ?
Output: low

Task: Class for `O=C(CC/C=C/c1ccccc1)Nc1ccccc1N1CCOC1=O` ?
Output: medium

Task: Class for `CCc1noc(CN2CCCN(C(C)=O)c3ccccc32)n1` ?
Output: medium

Task: Class for `O=C(NCCN1CCc2ccccc2C1=O)c1ccncc1` ?
Output: low

Task: Class for `CCCc1noc2nc(-c3ccncc3)cc(C(=O)O)c12` ?
Output: low

Task: Class for `N#CCCN(c1ncnc2sccc12)C1CC1` ?
Output: low

Task: Class for `Fc1ccc(-c2nnc(CN3CCC(c4c[nH]c5ccccc45)CC3)o2)cc1` ?
Output: medium

Task: Class for `Clc1cnc(NCC2(CN3CCCC3)CC2)nc1` ?
Output: low

Task: Class for `Fc1cccc(Cl)c1CNCCc1c[nH]c2ccccc12` ?
Output: high

Task: Class for `CN1CCN(C(=O)c2ccc3cc(CCNc4ncnc5ccc(C#N)cc45)ccc3c2)CC1` ?
Output: high

Task: Class for `Cc1cccc(C)c1OCC(=O)N(C)[C@@H]1CCC[C@@H](O)[C@@H]1O` ?
Output: low

Task: Class for `CO[C@H]1CC[C@H](C(=O)NC[C@H]2CC[C@H](c3nnc(-c4nccc5ccccc45)o3)CC2)CC1` ?
Output: high

Task: Class for `O=C(CCn1ccc2ccccc21)N1CCC(n2c(=O)[nH]c3ccccc32)CC1` ?
Output: high

Task: Class for `Cc1nc(N(C)C)cc(C2(C)CCNCC2)n1` ?
Output: low

Task: Class for `N#Cc1ccc(C(=O)Nn2cnnc2)cc1` ?
Output: low

Task: Class for `Cc1ccc(-c2ccc(-c3nccn3CCCn3cnnc3)o2)cc1` ?
Output: low

Task: Class for `Cc1sc2nc(CN3CCOCC3)nc(N3CCN(c4ccncc4)CC3)c2c1C` ?
Output: low

Task: Class for `COc1ccc(C(=O)N2CCCC2)cc1NC(C)C` ?
Output: low

Task: Class for `Cc1cc(C(=O)N(C)CCCC2CCCC2)cc(C)n1` ?
Output: medium

Task: Class for `Cc1nc2c(c(N(C)Cc3ccccc3)n1)CCN(Cc1ccccc1)C2` ?
Output: high

Task: Class for `O=C(c1ccc(O)cc1)N1CCN(c2ncnc3c2CCC3)CC1` ?
Output: low

Task: Class for `Cc1ccc(OC[C@@H](O)[C@H](C)NC(C)C)c2c1CCC2` ?
Output: high

Task: Class for Cc1nnc(-c2ccc3occ(-c4ccc(S(C)=O)cc4)c3c2)o1 (stereo not drawn) ?
Output: low

Task: Class for COc1cc2c(cc1OC)CN(C(=O)C1CCCN(C(=O)OC(C)(C)C)C1)CC2 (stereo not drawn) ?
Output: high

Task: Class for `CCn1ccc2cc(C(=O)N3CCN(c4ccc(C)cc4)C(=O)C3)ccc21` ?
Output: low

Task: Class for `COc1cc(CNC(=O)NC2CCCCC2)cc(OC)c1O` ?
Output: low

Task: Class for `Cc1cc(C)n(-c2cc(Nc3ccccc3C)ncn2)n1` ?
Output: medium

Task: Class for `COc1cc(Nc2cc(-c3cccc(C#N)c3)ccn2)ccc1N1CCN(C)CC1` ?
Output: low

Task: Class for `CN(C)c1cncc(-c2ccc(C(=O)NC(C)(C)C)cc2)n1` ?
Output: low
